Just for reference, patent US20040043420A1 is where these values come from.

Biological target: androgen receptor (Homo sapiens)
Sequence (P10275 1-920): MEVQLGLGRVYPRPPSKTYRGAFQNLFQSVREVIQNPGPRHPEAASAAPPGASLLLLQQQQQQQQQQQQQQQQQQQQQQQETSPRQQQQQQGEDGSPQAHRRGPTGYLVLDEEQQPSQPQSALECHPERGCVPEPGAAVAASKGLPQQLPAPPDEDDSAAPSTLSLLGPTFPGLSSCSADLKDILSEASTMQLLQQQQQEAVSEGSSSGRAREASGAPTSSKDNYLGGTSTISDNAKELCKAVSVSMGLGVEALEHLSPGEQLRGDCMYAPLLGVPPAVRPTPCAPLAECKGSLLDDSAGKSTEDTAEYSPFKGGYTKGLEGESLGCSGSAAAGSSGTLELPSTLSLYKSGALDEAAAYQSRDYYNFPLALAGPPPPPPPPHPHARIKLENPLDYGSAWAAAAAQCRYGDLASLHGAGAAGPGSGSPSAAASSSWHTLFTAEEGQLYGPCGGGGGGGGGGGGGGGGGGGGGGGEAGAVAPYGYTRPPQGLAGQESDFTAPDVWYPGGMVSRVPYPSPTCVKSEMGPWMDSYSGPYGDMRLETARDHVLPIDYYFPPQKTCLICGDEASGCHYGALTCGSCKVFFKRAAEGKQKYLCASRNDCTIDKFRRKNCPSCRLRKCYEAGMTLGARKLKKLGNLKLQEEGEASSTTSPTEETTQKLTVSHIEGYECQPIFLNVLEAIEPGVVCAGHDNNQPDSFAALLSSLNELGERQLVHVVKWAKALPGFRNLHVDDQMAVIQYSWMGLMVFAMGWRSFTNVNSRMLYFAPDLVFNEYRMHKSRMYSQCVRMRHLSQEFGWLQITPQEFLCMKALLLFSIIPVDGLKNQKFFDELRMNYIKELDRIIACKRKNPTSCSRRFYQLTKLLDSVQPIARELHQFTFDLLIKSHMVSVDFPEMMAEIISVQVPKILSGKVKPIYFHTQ
Test: Yeast two-hybrid screening of unbiased X15 peptide library, ligand-induced β-galactosidase activity (FIG. 3, Table 503)
Assay type: cell-based
Design: expressed in transfected cells; host or cells: Saccharomyces cerevisiae PJ69-4α
RESULT_TYPE: Fold induction
Just the number, please, no unit after it.

Study these solved cases before continuing.
In [3]: df
Out[3]:
                         substance     result_type  measured_result
0   EFRQSFVSEILGGGWLPLDLOPS [M2H3]  Fold induction               10
1  EFVNWDAVVPWSELVALLDLOPS [B8A10]  Fold induction                1
2  EFQQCMCAEVKSWLGGSLDLOPS* [B8E9]  Fold induction                4

input: Entry under review: EFHSRLRVEVVSWGIGSTCSQANSGRISYDL* [B8H3] . Reported Fold induction?
output: 22
